- experimental.target: rat trace amine receptor (Rattus norvegicus, UniProt Q923Y9, L170Q/L53I/P183L/R211E/S15R)
- Construct: expression vector containing the full-length rat cDNA clone described above; expressed in transfected cells
- Sequence (Q923Y9 whole entry S15R/L53I/L170Q/P183L/R211E): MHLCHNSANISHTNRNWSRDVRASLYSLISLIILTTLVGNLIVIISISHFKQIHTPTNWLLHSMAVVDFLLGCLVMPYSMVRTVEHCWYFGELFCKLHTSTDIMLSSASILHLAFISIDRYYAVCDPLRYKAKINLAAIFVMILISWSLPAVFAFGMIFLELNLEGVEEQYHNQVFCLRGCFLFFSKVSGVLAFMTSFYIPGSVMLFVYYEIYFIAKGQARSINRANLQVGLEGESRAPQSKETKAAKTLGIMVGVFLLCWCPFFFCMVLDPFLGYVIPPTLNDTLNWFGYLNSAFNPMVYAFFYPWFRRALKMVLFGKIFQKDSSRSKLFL
- protocol: cell-based
- Type: cell-based
- assay.setup: Table III; cAMP, 1 hour at 37° C., 100 μM IBMX; read-out: EC50 (nM ± SEM)
assay.metric: EC50

[
  {
    "molecule": "NCCc1ccccc1",
    "experimental.target": "rat trace amine receptor (Rattus norvegicus, UniProt Q923Y9, L170Q/L53I/P183L/R211E/S15R)",
    "result": "237 nM"
  },
  {
    "molecule": "NCCc1cccc(O)c1",
    "experimental.target": "rat trace amine receptor (Rattus norvegicus, UniProt Q923Y9, L170Q/L53I/P183L/R211E/S15R)",
    "result": "5370 nM"
  },
  {
    "molecule": "CNCC(O)c1ccc(O)cc1 (stereo not drawn) [Synephrine]",
    "experimental.target": "rat trace amine receptor (Rattus norvegicus, UniProt Q923Y9, L170Q/L53I/P183L/R211E/S15R)",
    "result": "584 nM"
  },
  {
    "molecule": "CN1CC=C(c2ccccc2)CC1",
    "experimental.target": "rat trace amine receptor (Rattus norvegicus, UniProt Q923Y9, L170Q/L53I/P183L/R211E/S15R)",
    "result": "99 nM"
  },
  {
    "molecule": "NCCc1c[nH]c2ccc(O)cc12 [5-hydroxytryptamine]",
    "experimental.target": "rat trace amine receptor (Rattus norvegicus, UniProt Q923Y9, L170Q/L53I/P183L/R211E/S15R)",
    "result": "12800 nM"
  },
  {
    "molecule": "NCCc1c[nH]c2ccccc12",
    "experimental.target": "rat trace amine receptor (Rattus norvegicus, UniProt Q923Y9, L170Q/L53I/P183L/R211E/S15R)",
    "result": "309 nM"
  }
]

====

- experimental.target: rat trace amine receptor (Rattus norvegicus, UniProt Q923Y9, L170Q/L53I/P183L/R211E/S15R)
- Construct: expression vector containing the full-length rat cDNA clone described above; expressed in transfected cells
- protocol: cell-based
- Format: cell-based
- assay.setup: EC50 (nM), DRUGS

[
  {
    "mol": "NCCc1ccc(O)cc1",
    "EC50 / nM": 20.2
  }
]

====

- experimental.target: rat trace amine receptor (Rattus norvegicus, UniProt Q923Y9, L170Q/L53I/P183L/R211E/S15R)
- Construct: expression vector containing the full-length rat cDNA clone described above; expressed in transfected cells
- protocol: cell-based
- Assay type: cell-based
- assay.setup: untitled table after Table III, first value column; read-out: EC50 (nM), NEUROTRANSMITTERS, first column

[
  {
    "compound": "NCCc1cccc(O)c1 [m-tyramine]",
    "experimental.target": "rat trace amine receptor (Rattus norvegicus, UniProt Q923Y9, L170Q/L53I/P183L/R211E/S15R)",
    "EC50 / nM": 7190
  },
  {
    "compound": "NCCc1ccccc1 [Phenethylamine, β-phenethylamine]",
    "experimental.target": "rat trace amine receptor (Rattus norvegicus, UniProt Q923Y9, L170Q/L53I/P183L/R211E/S15R)",
    "EC50 / nM": 218
  },
  {
    "compound": "NCCc1c[nH]c2ccc(O)cc12 [5-hydroxytryptamine]",
    "experimental.target": "rat trace amine receptor (Rattus norvegicus, UniProt Q923Y9, L170Q/L53I/P183L/R211E/S15R)",
    "EC50 / nM": 1910
  },
  {
    "compound": "NCCc1c[nH]c2ccccc12 [Tryptamine]",
    "experimental.target": "rat trace amine receptor (Rattus norvegicus, UniProt Q923Y9, L170Q/L53I/P183L/R211E/S15R)",
    "EC50 / nM": 248
  }
]

Every entry's value here was drawn from patent US7381542B2.
